METHOD DESCRIPTION: protease stability score; higher = more stable; yeast display proteolysis, trypsin and chymotrypsin;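 note: log10 excess protease needed over predicted unfolded state with 0 meaning unfolded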
PROPERTY LABEL: protease stability score

# input sequence: "DDENVKKFAKELLHVIKDNDEDRFRKLAPPNVEAQYGDKTIRGRESAATQFSRVATRIDHVRLEHMTVQGEHVVMKMEVDVNGRNKQLRIVFHVRNGKITSFSMDPEAQRVNSQ" ; wanted: its protease stability score
0.594

# input sequence: "EEEVEDQAKKYAKALHDNDPKTLSKLADKDAEFRYGDHQFHGREEVEKHWEKELKEIEVDWRVVDVKAHNGQVRIRFQAHRHHNGDPKNDNRKASARVTNGRIKKIEWVEDH" ; wanted: its protease stability score
-0.059

# input sequence: "DERNNEFAKHFIEVLNQGDWKRLNEMLDPNVKVEIGDTTIHGRENFSRNVKQDLDHLRQEFHITSMDASGNKVEVRADVINRDNGKPREFKMKMEIRFHNGRVKEIKLDHDG" ; wanted: its protease stability score
1.53

# input sequence: "EEHVMRIVTNQLEAIKHGDEDRVRDLADPNARFHVGDKSIHGMEKYANDLRSEMEHMQVEFNLQSVTVEGDKVVITFEAQFNQNGKPKNYREVFRVEAQGDKIKDYRQERKD" ; wanted: its protease stability score
0.001

# input sequence: "DEETRKRVETLLEALETGNPEEISKQIDPNATVVVGDKTLHGREDIRDWVRRQHEKIRVEYKHVQIRIHNGRAHVTFEAVVEVNGKPKTVRAQMVFTVSNGKFQHIELHLDEEWKKMEKG" ; wanted: its protease stability score
1.38

# input sequence: "DEKNSKLAKDFFEAIESNNPEHAKELADENARYQVGDKQLHGMDEVLKHIKRENERAQVTVSSMTFRISNGRVEVHMDVQRDDNGDPDKKNLVVNFHFRNGKIKEVQDKNDS" ; wanted: its protease stability score
0.614
